- Test system: MS2 coat protein
- Procedure Summary: apparent KD of MS2 coat protein; designed switch direction (-1 OFF switch, 1 ON switch): -1; higher = weaker reporter binding
- Condition Context: input ligand: FMN 200 uM
Observed Property: apparent KD of MS2 coat protein (nM)
The response must be a number in nM with no trailing unit.

Please review the entries below; each comes with its answer.
AUAAGCCCGGCAGGAUAUCACAGGUUGCCGGGUAUCAACAUGAGGAUCACCCAUGUACACCUGCUUGAGAAGGGCCCAAGGGCG [Inarza] (Eterna round: R96, puzzle: Exclusion NG 2): 163
CUGGGCGGAGGAUAUACAGGUUUAAUAUAAAUUAAAUUGGGACAUGAGGAUCACCCAUGUAGAAGGUUGUUUAG [-13.6, -11.8 kcal, 32% A] (Eterna round: R97, puzzle: Exclusion 2): 23.4
CGUGACUCAGGAUAUCUAUAGUAUCACAUGAGGAUCACCCAUGUCCAGCGAAAGCUGGAGGGAGAAGGGAGUCACG [Fiskers Ex 5 - 42] (Eterna round: R96, puzzle: Exclusion 5): 74.1

Continue with the sequence presented below.
The sequence listed as UACGAACUAGGAUAUGCAAUGGGCUCGCUUUCCUUCGAUAAACUUGAGGAUCACCCAAGUAGAAGGAGUUUGUA [Mod 38 - Jieux - Exclusion 2] (Eterna round: R97, puzzle: Exclusion 2) has a reported apparent KD of MS2 coat protein of 40.8
